Tested on: NIH-3T3 viability with fluconazole, Alamar Blue, 48 h
Method Summary: PubChem AID 493147
Records with an inconclusive call do not appear. Calls of active or inactive are those of the source. No rule for the calls is given here.
Possible outcomes: active, inactive

1. COC(=O)Cn1nc(-c2ccccc2OC)c2ccccc21 | active
2. O=C(Cn1c2ccccc2c2nc3n(c(=O)c21)CCS3)N1CCCC1 | active
3. COC(=O)Cn1ncc2ccccc21 | active
4. COC(=O)Cn1nc(I)c2ccccc21 | active
5. O=C(Cn1nc(-c2ccccc2)c2ccccc21)OC1CCC1 | active
6. O=C(c1ccc(Cl)cc1)N1CCN(c2nc3ccccc3o2)CC1 | active
7. O=C(c1ccc(Cl)cc1)N1CCN(c2cccc(C(F)(F)F)n2)CC1 | active
8. Cc1ccc(N2CCN(C(=O)c3ccc(Cl)cc3)CC2)nc1 | inactive
9. COC(=O)Cn1nc(-c2ccc(C(F)(F)F)cc2)c2ccccc21 | active
10. COC(=O)Cn1nc(-c2ccccc2)c2ccc(OC)cc21 | active
11. COc1ccc(C(=O)N2CCN(c3ccccn3)CC2)cc1 | active
12. COC(=O)Cn1nc(-c2ccc(OC)cc2)c2ccccc21 | active
13. COC(=O)Cn1nc(-c2cccc(F)c2)c2ccccc21 | active
14. COc1ccc(NC(=O)Cn2c3ccccc3c3nc4n(c(=O)c32)CCS4)cc1 | active
15. COc1cccnc1N1CCN(C(=O)c2ccc(Cl)cc2)CC1 | active
16. Cc1cccc(N2CCN(C(=O)c3ccc(Cl)cc3)CC2)n1 | active
17. O=C(Cn1nc(-c2ccccc2)c2ccccc21)NCc1ccc(Cl)cc1 | active
18. CC1CCN(C(=O)Cn2c3ccccc3c3nc4n(c(=O)c32)CCS4)CC1 | inactive
19. COC(=O)Cn1c2ccccc2c2nc3n(c(=O)c21)CCS3 | active

Hello, the source for this data is PubChem BioAssay AID493147, in case you need it.
